Molecular target: 5HT1B serotonin receptor (Rattus norvegicus)
Construct: Cell membrane fractions, prepared from tissue homogenates or cells; from tissue
Sequence (P28564 whole entry): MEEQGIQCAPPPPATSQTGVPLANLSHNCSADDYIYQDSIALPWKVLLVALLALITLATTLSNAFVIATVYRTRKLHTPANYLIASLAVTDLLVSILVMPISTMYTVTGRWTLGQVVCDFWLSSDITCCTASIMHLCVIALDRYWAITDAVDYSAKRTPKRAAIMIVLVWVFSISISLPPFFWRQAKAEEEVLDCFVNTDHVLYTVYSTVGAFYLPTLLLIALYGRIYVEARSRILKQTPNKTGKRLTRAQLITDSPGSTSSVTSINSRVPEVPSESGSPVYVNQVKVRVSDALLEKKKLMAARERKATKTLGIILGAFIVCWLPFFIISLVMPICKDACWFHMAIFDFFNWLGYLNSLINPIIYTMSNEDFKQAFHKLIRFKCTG
Assay: 5HT1B receptor binding, [3H]serotonin displacement
Conditions: read-out: IC50 (inhibition of [3H]-ligand binding) (converted)
Please respond with reported IC50 for every item in the list.
All answers are understood in µM, so give the number only.

Challenge: Recorded IC50 for `COc1cc(N)c(Br)cc1C(=O)NC1(C)CCN(CCCOc2ccc(F)cc2)CC1` , please?
Response given: 6.61

Challenge: Same question, `COc1cc(N)c(I)cc1C(=O)NC1(C)CCN(CCCOc2ccc(F)cc2)CC1` this time
Response given: 8.91

Challenge: Another compound: `COc1cc(N)c(Cl)cc1C(=O)NC1(C)CCN(CCCOc2ccc(F)cc2Br)CC1`
Response given: 10

Challenge: Next compound up: `COc1cc(N)c(Cl)cc1C(=O)NC1(C)CCN(CCCOc2ccc(F)cc2)CC1`
Response given: 6.61

Challenge: What do we get for COc1cc(N=[N+]=[N-])c(I)cc1C(=O)NC1(C)CCN(CCCOc2ccc(F)cc2)CC1 [Compound 7, hemihydrate] ?
Response given: 3.24

Challenge: Now consider `COc1cc(N=[N+]=[N-])c(Br)cc1C(=O)NC1(C)CCN(CCCOc2ccc(F)cc2)CC1` .
Response given: 3.31
